biological target: UniProt P21964; experiment: COMT-Fluorescence Assay; type: biochemical; settings: COMT-fluorescence assay, rec. human COMT 25 nM, 4-Nitrocatechol-Alexa488 200 nM, SAM 500 nM; read-out: IC50
Entries whose IC50 is below 20 nM take true; entries at or above 20 nM take false.

Here are 3 compounds together with their reported answers.
>>> group("Cn1cnc(-c2cc(O)c3nc[nH]c(=O)c3c2)c1")
"false"
>>> group("O=c1[nH]cnc2c(O)cc(-c3cccc(N4CCCC4)n3)cc12")
"false"
>>> group("Cc1cccc(Cc2cc(O)c3nc[nH]c(=O)c3c2)c1")
"false"

Hi there! Is IC50 for Cn1ccnc1-c1cc(O)c2nc[nH]c(=O)c2c1 below 20 nM, do you know?
false

Hi there! Is IC50 for O=c1[nH]cnc2c(O)cc(Cc3ccccc3F)cc12 below 20 nM, do you know?
false

Hi there! Is IC50 for Cc1ncccc1-c1cc(O)c2nc[nH]c(=O)c2c1F below 20 nM, do you know?
true

Hi there! Is IC50 for O=c1[nH]cnc2c(O)cc(-c3ccc(N4CCOCC4)nc3)cc12 below 20 nM, do you know?
false

Hi there! Is IC50 for Cc1cc(-c2cc(O)c3nc[nH]c(=O)c3c2)ccn1 below 20 nM, do you know?
true

Hi there! Is IC50 for Cc1nc(-c2ccccc2)sc1-c1cc(O)c2nc[nH]c(=O)c2c1 below 20 nM, do you know?
true

====

Quick reference for IC50 among some compounds
Target: Rec. human COMT (Homo sapiens, UniProt P21964)
Sequence (P21964 1-271): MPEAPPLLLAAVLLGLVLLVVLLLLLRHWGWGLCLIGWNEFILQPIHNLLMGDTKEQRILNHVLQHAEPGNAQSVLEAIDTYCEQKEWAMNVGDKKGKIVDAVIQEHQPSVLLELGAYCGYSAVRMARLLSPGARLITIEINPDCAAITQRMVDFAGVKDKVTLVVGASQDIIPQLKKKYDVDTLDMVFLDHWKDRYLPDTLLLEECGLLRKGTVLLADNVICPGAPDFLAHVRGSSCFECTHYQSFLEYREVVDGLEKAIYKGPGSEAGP
Assay: COMT-Fluorescence Assay
Assay type: biochemical
Settings: COMT-fluorescence assay, rec. human COMT 25 nM, 4-Nitrocatechol-Alexa488 200 nM, SAM 500 nM; read-out: IC50
Dear colleague, please return just the value in nM, with no unit written.

>>> assay_result("Cc1cc(-c2c(Br)cc(O)c3nc[nH]c(=O)c23)ccn1")
70
>>> assay_result("O=c1[nH]cnc2c(O)cc(C#Cc3ccccc3)cc12")
10
>>> assay_result("Cc1ccc(/C=C/c2cc(O)c3nc[nH]c(=O)c3c2)cc1")
100
>>> assay_result("COCc1cc(C(=O)N2CCN(C)CC2)ccc1-c1cc(O)c2nc[nH]c(=O)c2c1")
10
>>> assay_result("Cc1ccc(-c2c(-c3ccc(F)cc3)c(Br)c(O)c3nc[nH]c(=O)c23)cc1")
260

Field request: IC50 | item: O=c1[nH]cnc2c(O)ccc(C(F)(F)F)c12
1030

Field request: IC50 | item: CSCc1ccccc1-c1cc(O)c2nc[nH]c(=O)c2c1
40

Field request: IC50 | item: O=c1[nH]cnc2c(O)cc(-c3ccc(F)cc3)c(C(F)(F)F)c12
40

Field request: IC50 | item: O=c1[nH]cnc2c(O)cc(-c3ccc(F)cc3)c(Cl)c12
10

Field request: IC50 | item: Cc1cnc(-c2cc(O)c3nc[nH]c(=O)c3c2)s1
30

Field request: IC50 | item: O=c1[nH]cnc2c(O)cc(-c3ccnc(N4CCNCC4)c3)cc12
20

====

target: Rec. human COMT (Homo sapiens); assay: COMT-Fluorescence Assay; format: biochemical; settings: COMT-fluorescence assay, rec. human COMT 25 nM, 4-Nitrocatechol-Alexa488 200 nM, SAM 500 nM; read-out: IC50
Quick reference for pIC50 among some molecules
Friendly reminder that pIC50 comes from taking -log10 of the concentration in mol/L.

>>> assay_result("O=c1[nH]cnc2c(O)cc(-c3ccccc3CCCN3CCCC3)cc12")
6.66
>>> assay_result("N#Cc1ccc(Cl)c(-c2cc(O)c3nc[nH]c(=O)c3c2)c1")
7.40
>>> assay_result("O=c1[nH]cnc2c(O)cc(-c3cccnc3OCC(F)(F)F)cc12")
7.40
>>> assay_result("O=c1[nH]cnc2c(O)cc(Br)c(F)c12")
6.92
>>> assay_result("CN(C)c1ccc(-c2cc(O)c3nc[nH]c(=O)c3c2)cc1")
7.70

Field request: pIC50 | item: Cc1nnc(-c2cc(O)c3nc[nH]c(=O)c3c2)s1
7.22

Field request: pIC50 | item: O=c1[nH]cnc2c(O)cc(-c3ccccc3-c3ccccc3)cc12
6.19

Field request: pIC50 | item: CN(C)CCCc1ccccc1-c1cc(O)c2nc[nH]c(=O)c2c1
6.89

Field request: pIC50 | item: O=c1[nH]cnc2c(O)cc(-c3ccc(F)cc3)c(-c3ccnc(N4CCOCC4)c3)c12
7.40

====

Biological target: Rec. human COMT (Homo sapiens, UniProt P21964)
Sequence (P21964 1-271): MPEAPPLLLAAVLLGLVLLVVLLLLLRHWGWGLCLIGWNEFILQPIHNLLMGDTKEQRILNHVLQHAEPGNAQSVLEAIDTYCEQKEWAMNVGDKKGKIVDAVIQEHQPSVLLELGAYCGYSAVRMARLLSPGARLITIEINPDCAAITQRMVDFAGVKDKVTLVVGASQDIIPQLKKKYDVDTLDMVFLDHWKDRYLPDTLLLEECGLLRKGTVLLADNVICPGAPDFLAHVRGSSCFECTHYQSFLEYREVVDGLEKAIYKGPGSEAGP
Assay: COMT-Fluorescence Assay
Assay type: biochemical
Conditions: COMT-fluorescence assay, rec. human COMT 25 nM, 4-Nitrocatechol-Alexa488 200 nM, SAM 500 nM; read-out: IC50
Quick reference for log10(IC50) among some molecules
Short version: log10 scale, IC50, nM.

Examples with answers:
>>> assay_result("COCCn1cc(-c2cc(O)c3nc[nH]c(=O)c3c2)cn1 [Example 47]")
1.78
>>> assay_result("CCCS(=O)(=O)c1ccccc1-c1cc(O)c2nc[nH]c(=O)c2c1 [Example 249]")
3.51
>>> assay_result("O=C(c1cccc(-c2cc(O)c3nc[nH]c(=O)c3c2)c1)N1CCS(=O)(=O)CC1 [Example 192]")
1.30

Field request: log10(IC50) | item: Cc1c(-c2cc(O)c3nc[nH]c(=O)c3c2)cnn1C [Example 206]
1.48

Field request: log10(IC50) | item: COCc1ccc(C(=O)N2CCN(C)CC2)cc1-c1cc(O)c2nc[nH]c(=O)c2c1 [Example 233, formic acid]
3.07

Field request: log10(IC50) | item: CN(C)CCOCc1ccccc1-c1cc(O)c2nc[nH]c(=O)c2c1 [Example 241]
1.48

Field request: log10(IC50) | item: O=C(NCC(F)(F)C(F)(F)F)c1cc(O)c2nc[nH]c(=O)c2c1 [Example 4]
2.23

Field request: log10(IC50) | item: O=c1[nH]cnc2c(O)cc(-c3ccc(F)c(F)c3F)cc12 [Example 31]
1.30

Field request: log10(IC50) | item: CN(C)S(=O)(=O)n1cnc(-c2cc(O)c3nc[nH]c(=O)c3c2)c1 [Example 77]
1.70

====

biological target: Rec. human COMT (Homo sapiens); experiment: COMT-Fluorescence Assay; assay type: biochemical; conditions: COMT-fluorescence assay, rec. human COMT 25 nM, 4-Nitrocatechol-Alexa488 200 nM, SAM 500 nM; read-out: IC50
Quick reference for pIC50 among some molecules
Friendly reminder that pIC50 comes from taking -log10 of the concentration in mol/L.

Examples with answers:
>>> assay_result("O=C(c1ccc(-c2cc(O)c3nc[nH]c(=O)c3c2)cc1)N1CCC(F)(F)CC1")
8.00
>>> assay_result("Cc1onc(-c2ccccc2)c1-c1cc(O)c2nc[nH]c(=O)c2c1")
5.34
>>> assay_result("COCc1nc(NC(=O)C(C)(C)C)ccc1-c1cc(O)c2nc[nH]c(=O)c2c1")
8.00

Field request: pIC50 | item: CN1CCC(CCOCc2ccccc2-c2cc(O)c3nc[nH]c(=O)c3c2)CC1
7.44

Field request: pIC50 | item: O=c1[nH]cnc2c(O)cc(-c3cncc4ccccc34)cc12
7.52

Field request: pIC50 | item: O=c1[nH]cnc2c(O)cc(-c3ccccc3S(=O)(=O)N3CCCCC3)cc12
6.13

Field request: pIC50 | item: O=c1[nH]cnc2c(O)cc(-c3ccc(N4CCNCC4)nc3)cc12
7.70

Field request: pIC50 | item: COCc1ncccc1-c1cc(O)c2nc[nH]c(=O)c2c1 [Example 110, bis(2,2,2-trifluoroacetate)]
7.70

Field request: pIC50 | item: O=c1[nH]cnc2c(O)ccc(-c3ccc(F)cc3)c12
6.80

Hello, the source for this data is patent US9656971B2, in case you need it.
